Data origin, for the record: PubChem BioAssay (NCI)

Test system: UACC-257 melanoma
Assay: NCI tumour cell line growth inhibition, 48 h
observable: TGI

COC(=O)CC1c2ccccc2N2C(=O)Cc3c([nH]c4ccccc34)C12 (stereo not drawn)
> 100 µM
O=C(N/N=C(/COc1ccccc1)N=Cc1cccnc1)c1ccncc1
> 100 µM
Oc1c(Cl)c(Cl)c(O)c2c1CCCC2
30.5 µM

Give TGI for each of the items listed below.
1. COC(=N)c1c(N)[n+]([O-])c2ccc(F)cc2[n+]1[O-]
2. O=S(=O)(/C=C/CS(=O)(=O)c1ccccc1)c1ccccc1
3. CC(Cl)CC(=O)OCC1CCCN2CCCCC12 (stereo not drawn)
4. O=C(N/N=C/c1cc(Br)cc(Br)c1[O-])c1ccccc1O.O=C(N/N=C/c1cc(Br)cc(Br)c1[O-])c1ccccc1O.[Co+2]
5. CC[C@@]1(O)C(=O)OCc2c1cc1n(c2=O)Cc2c-1nc1ccccc1c2/C=N/NC(=O)c1ccc(N)cc1
6. CCOC(=O)NN(C(=O)OCC)c1c(C)cc(C)cc1C
7. CNc1nc(C(N)=O)c(N)s1
8. NS(=O)(=O)c1ccc(/C=C/c2ccc(O)cc2)cc1

stdout:
1. > 100 µM
2. 87 µM
3. > 100 µM
4. 17.6 µM
5. > 100 µM
6. > 100 µM
7. > 100 µM
8. > 100 µM

Give TGI for each of the items listed below.
1. COc1cc2c(c(OC)c1OC)-c1ccc(SC)cc1C(O)CC2 (stereo not drawn)
2. COc1ccc2nc3cc(Cl)ccc3c(SCC(=O)Nc3ccccc3-c3ccccc3NC(=O)CSc3c4ccc(Cl)cc4nc4ccc(OC)cc34)c2c1
3. ON=C(CC(O)(C(F)(F)Cl)C(F)(F)Cl)CC(O)(C(F)(F)Cl)C(F)(F)Cl
4. Cc1ccc(N/C(SCc2ccccc2)=C(\C(Cl)=C(Cl)Cl)[N+](=O)[O-])c(C)c1
5. COc1cccc(-c2cc3c4c(nc5ccccc53)C(=O)c3cccnc3-c4n2)c1
6. COC(=O)/C=C1/OC(c2ccc(OC)cc2)=C(Cl)C1=O

stdout:
["32.8 µg/mL", "> 100 µM", "> 10 µM", "> 100 µM", "4.33 µM", "49.6 µM"]

stdin: Which TGI value belongs to CCOC(=O)/C=C(/C)Nc1nc2c(c(C(=O)OC)c1C#N)CCCC2 ?
stdout: > 100 µM

====

System: SK-OV-3 ovarian
Assay: NCI tumour cell line growth inhibition, 48 h
observable: GI50

Recorded GI50, per entry:
c1ccc2[nH]c(-c3cc(-c4ccc5c(c4)OCO5)n[nH]3)nc2c1
4.98 µM
Cn1cc(-c2csc(-c3cn(CCCN4CCCCC4)c4ccccc34)n2)c2cccnc21
19.3 µM
CC(C)(c1ccccc1)c1ccc(Oc2ccc(C#N)c(C#N)c2)cc1
> 100 µM
Cc1nn(-c2ccc(Cl)cc2)c2nc3c(nc12)C(=O)C(=O)c1ccccc1-3
> 100 µM
[O-]c1ccccc1/C=N/C(/N=C/c1ccccc1[O-])c1ccccc1O.[O-]c1ccccc1/C=N/C(/N=C/c1ccccc1[O-])c1ccccc1O.[Zr+4]
23.1 µM

Give GI50 for each of the items listed below.
1. Cc1ccc(-c2csc(NC(=O)N3CCN(c4cc5c(cc4F)c(=O)c(C(=O)O)cn5C4CC4)CC3)n2)cc1
2. CC(=O)[CH-]C(=O)c1ccccc1.CC(=O)[CH-]C(=O)c1ccccc1.CC(=O)[CH-]C(=O)c1ccccc1.[In+3]

stdout:
1.35 µM
29.2 µM

====

System: MCF7 breast
Assay: NCI tumour cell line growth inhibition, 48 h
Please go through the items and note down their TGI.

Recorded TGI, per entry:
C#CC1(O)CCCCCCCCC2(CCCCCCCC1)OCCO2
36.3 µM
Cc1ccc(N(C)S(=O)(=O)c2ccccc2[N+](=O)[O-])cc1
> 100 µM
COc1ccc(N(/C=C/C(=O)C(F)(F)F)CC(=O)c2ccc(F)cc2)cc1
> 100 µM
Cc1ccc(-c2nc3nc(-c4ccccc4)nc(N4CCNCC4)c3o2)cc1
1.73 µM
Cc1nn(-c2ccc(Cl)cc2)c2nc3c(nc12)C(=O)C(=O)c1ccccc1-3
> 100 µM
CCOP(=O)(OCC)OC1c2[nH]cc(C(=O)OCc3ccccc3)c2-c2cc(C(=O)OC)[nH]c2C1OC (stereo unspecified)
> 100 µM
CCN1CN(c2ccccc2)C2(CCN(CC(CC3OCCO3)c3ccc(F)cc3)CC2)C1=O (stereo unspecified)
7.22 µM
CC1=C(C(=O)N(C)c2ccc(Cl)c(C(=O)OC(C)C)c2)SCCO1
> 100 µM
CC(=O)CC1=C(OC(C)C)C2(OCCO2)C1O (stereo unspecified)
> 100 µM
COc1ccc(C2=CC(c3ccc(OC)cc3Br)N3C=CSC3=N2)cc1 (stereo unspecified)
11.2 µM

Give TGI for each of the items listed below.
1. O=c1cc(-c2cccnc2)[nH]c2cc3c(cc12)OCO3
2. Nc1ncnc2c1c(-c1ccc(Oc3ccccc3)cc1)nn2C[C@@H]1SSC[C@H]1O

stdout:
1: > 100 µM; 2: 3.79 µM

====

Please go through the items and note down their TGI.
Test system: HOP-62 NSCLC
Experiment: NCI tumour cell line growth inhibition, 48 h

Recorded TGI, per entry:
CC1C(C#N)(C#N)C(C#N)=C(N)C1(Cl)[N+](=O)[O-] (centres undefined)
9.72 µM
CN1CCc2[nH]nc(-c3n[nH]c4c3CN(C)CC4)c2C1
> 100 µM
Cc1cn2c(/C=C3/C(=O)Nc4ccc(O)cc43)c(C)nc2s1
> 68 µM
CCO/C=N/C1=C(C#N)SC2=N/C(=C\c3ccccc3)C(=O)N21
> 100 µM
Nc1nc(-c2ccco2)cc(-c2ccc(CO)o2)n1
> 100 µM
CNc1nc(C(N)=O)c(N)s1
> 100 µM

Give TGI for each of the items listed below.
1. Cc1ccc(N/C(SCc2ccccc2)=C(\C(Cl)=C(Cl)Cl)[N+](=O)[O-])c(C)c1
2. O=c1oc2cc(O)ccc2c(O)c1Cc1c(O)c2ccc(O)cc2oc1=O
3. CC(=O)OC(Cc1c(O)c2c(C)cccc2oc1=O)C(C)(C)O (centres undefined)
4. O=c1c(O)c(-c2ccc(O)c(O)c2)oc2cc(O)cc(O)c12
5. N#Cc1c(-c2ccccc2)c(CN2CCCCC2)c(=O)n2c1[nH]c1ccccc12
6. CCC1NC(N=Nc2ccc([N+](=O)[O-])cc2)(P(=O)(OC(C)C)OC(C)C)OC1=O (centres undefined)
7. CC1(C)N=C(C2CCCN2C(=O)OCc2ccccc2)OC1=O (centres undefined)

stdout:
["> 100 µM", "> 100 µM", "> 100 µM", "> 100 µM", "91.5 µM", "> 100 µM", "> 100 µM"]

stdin: Which TGI value belongs to O=C(N/C(=C\c1ccc(/C=C(\NC(=O)c2ccccc2)c2nc3ccccc3[nH]2)cc1)c1nc2ccccc2[nH]1)c1ccccc1 ?
stdout: > 100 µM

====

System: EKVX NSCLC
Test: NCI tumour cell line growth inhibition, 48 h
Please go through the items and note down their TGI.

CCOC(=O)C(Cl)(NC(=O)OCc1ccccc1)C(F)(F)F (stereo not drawn)
> 100 µM
NC(=O)c1ccc(-c2nc(-c3ccc4c(c3)OCO4)c(-c3ccccn3)[nH]2)cc1
> 100 µM

stdin: Fill in the recorded TGI for this compound, with EKVX NSCLC as test system: CCOc1cc2c(c(OCC)c1O)CC[C@@H]1[C@@H]2CC[C@]2(C)[C@@H](O)CC[C@@H]12
stdout: > 100 µM

====

System: HCT-15 colon
Experiment: NCI tumour cell line growth inhibition, 48 h
observable: TGI

Recorded TGI, per entry:
O=c1cc(-c2cccnc2)[nH]c2cc3c(cc12)OCO3
> 64.3 µM
COc1cccc(NC(=O)CC(=O)N2N=C(n3ccc4ccccc43)CC2c2ccccc2)c1 (stereo not drawn)
> 100 µM
O=C(O)c1nc(-c2ccc(Cl)c(Cl)c2)nc2ccc(Cl)cc12
> 100 µM
Oc1c(Cl)c(Cl)c(O)c2c1CCCC2
29.7 µM

Give TGI for each of the items listed below.
1. CN(Cc1cnc2c(N)nc(N)nc2n1)c1ccc(Cl)cc1
2. C[C@@H]1CC[C@@]2(OC1)O[C@H]1C[C@H]3[C@@H]4CC[C@H]5C[C@@H](OC6OC(CO)C(OC7OC(CO)C(O)C(OC8OCC(O)C(O)C8O)C7OC7OC(CO)C(O)C(O)C7O)C(O)C6O)[C@H](O)C[C@]5(C)[C@H]4CC[C@]3(C)[C@H]1[C@@H]2C (stereo partly drawn)
3. COC(=O)C12OC3CO[Si](C(C)C)(C(C)C)O[Si](C(C)C)(C(C)C)OC3C1Oc1nc(=O)ccn12 (stereo not drawn)
4. Cc1[nH]c(=O)nc(Nc2ccc(Cl)cc2)c1C(=O)N1CCN(CCO)CC1

stdout:
1: > 100 µM; 2: > 33.9 µM; 3: 30.1 µM; 4: > 100 µM
